molecular target: BMP1 (Homo sapiens, UniProt P13497); experiment: Inhibition of human BMP1 expressed in Escherichia coli assessed as residual activity using Abz-YVADAPK(Dnp)G-OH as substrate at 200 uM by fluorescence assay relative to control; details: probe Abz-YVADAPK(Dnp)G-OH, read-out: Activity
Sequence (P13497 whole entry): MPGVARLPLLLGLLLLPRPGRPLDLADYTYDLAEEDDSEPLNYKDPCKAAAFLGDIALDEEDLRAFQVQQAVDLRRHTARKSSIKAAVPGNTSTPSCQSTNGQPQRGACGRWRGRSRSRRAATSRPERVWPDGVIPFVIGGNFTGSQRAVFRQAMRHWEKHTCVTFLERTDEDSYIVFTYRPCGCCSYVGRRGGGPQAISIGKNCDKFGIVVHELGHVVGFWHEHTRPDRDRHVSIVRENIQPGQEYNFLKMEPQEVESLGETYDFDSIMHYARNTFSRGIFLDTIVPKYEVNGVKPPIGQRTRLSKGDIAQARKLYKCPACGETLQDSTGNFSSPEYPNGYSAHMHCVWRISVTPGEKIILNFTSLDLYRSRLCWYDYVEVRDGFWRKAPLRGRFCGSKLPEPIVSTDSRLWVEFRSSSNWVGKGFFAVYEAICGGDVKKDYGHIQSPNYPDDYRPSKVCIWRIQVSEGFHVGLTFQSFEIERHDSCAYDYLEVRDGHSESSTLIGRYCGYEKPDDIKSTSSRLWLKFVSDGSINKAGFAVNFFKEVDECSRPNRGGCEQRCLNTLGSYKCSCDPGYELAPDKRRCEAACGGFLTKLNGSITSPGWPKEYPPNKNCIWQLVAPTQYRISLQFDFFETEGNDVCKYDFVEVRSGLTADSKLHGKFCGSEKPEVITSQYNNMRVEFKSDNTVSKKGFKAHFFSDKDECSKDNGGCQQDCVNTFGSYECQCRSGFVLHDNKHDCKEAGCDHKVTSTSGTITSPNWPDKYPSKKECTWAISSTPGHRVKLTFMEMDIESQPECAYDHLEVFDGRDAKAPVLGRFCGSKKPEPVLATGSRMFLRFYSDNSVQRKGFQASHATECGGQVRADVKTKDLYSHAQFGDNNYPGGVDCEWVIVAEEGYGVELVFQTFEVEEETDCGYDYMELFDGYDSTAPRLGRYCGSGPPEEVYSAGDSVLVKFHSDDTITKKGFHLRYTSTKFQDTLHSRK
Measured activity at 200 µM of individual entries
Please make sure the unit comes right after the number.

O=C(CN(Cc1ccc(F)c(O)c1F)Cc1ccc(F)c(O)c1F)NO    34%
O=C(CN(Cc1cccc(C(=O)O)c1)Cc1cccc(C(=O)O)c1)NO    87%

// "O=C(CN(Cc1ccc(Cl)c(O)c1F)Cc1ccc(Cl)c(O)c1F)NO" : activity at 200 µM value = 50%

Sourced from ChEMBL document CHEMBL4184323
